# Tested on: Bacteria
# experiment-description: Inhibition of bacterial IMP-1 assessed as substrate hydrolysis at 50 uM using imipenem as substrate by spectrophotometric analysis relative to control
Measured inhibition, listed per entry for reference.

{"smiles-entry": "O=C1/C(=C/c2ccc(O)cc2O)Oc2c1ccc(O)c2I", "assay-target": "Bacteria", "inhibition": "15%"}

Data request: What value of measured inhibition is listed for COc1ccc(/C=C2\Oc3ccccc3C2=O)c(OC)c1OC ?
Data returned: < 10%

Data request: Another compound: O=C(O)c1ccc(/C=C2\Oc3c(O)cccc3C2=O)cc1
Data returned: < 10%

Data request: Request: O=C1/C(=C/c2ccc(O)cc2O)Oc2cc(O)ccc21
Data returned: < 10%

* * *

Measured inhibition, listed per entry.
# assay-target: Metallo-beta-lactamase type 2 (Bacteria) (UniProt C7C422)
# Sequence (C7C422 whole entry): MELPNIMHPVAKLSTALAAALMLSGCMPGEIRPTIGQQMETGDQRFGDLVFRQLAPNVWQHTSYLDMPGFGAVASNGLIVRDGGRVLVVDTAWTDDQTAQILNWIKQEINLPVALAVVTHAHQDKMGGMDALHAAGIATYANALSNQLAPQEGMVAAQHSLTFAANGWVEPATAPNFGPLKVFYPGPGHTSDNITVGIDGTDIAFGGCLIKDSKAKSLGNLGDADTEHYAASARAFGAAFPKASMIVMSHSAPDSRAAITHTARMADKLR
# experiment-description: Inhibition of bacterial NDM-1 assessed as substrate hydrolysis at 50 uM using imipenem as substrate by spectrophotometric analysis relative to control
Write down the numeric answer in % and omit the unit.

{"smiles-entry": "O=C1/C(=C/c2cn(Cc3cccc(O)c3)c3ccccc23)Oc2cc(O)cc(O)c21", "assay-target": "Metallo-beta-lactamase type 2 (Bacteria) (UniProt C7C422)", "quantity-unit": "%", "measured-result": 78}
{"smiles-entry": "O=C1/C(=C/c2ccc(Cl)cc2)Oc2cc(O)cc(O)c21", "assay-target": "Metallo-beta-lactamase type 2 (Bacteria) (UniProt C7C422)", "quantity-unit": "%", "measured-result": 11}
{"smiles-entry": "CCc1ccc(/C=C2\\Oc3cc(O)cc(O)c3C2=O)cc1", "assay-target": "Metallo-beta-lactamase type 2 (Bacteria) (UniProt C7C422)", "quantity-unit": "%", "measured-result": 55}
{"smiles-entry": "O=C1/C(=C/c2cn(CCCc3ccccc3)c3ccccc23)Oc2cc(O)cc(O)c21", "assay-target": "Metallo-beta-lactamase type 2 (Bacteria) (UniProt C7C422)", "quantity-unit": "%", "measured-result": 68.7}
{"smiles-entry": "O=C1/C(=C/c2ccc(N3CCCCC3)cc2)Oc2cc(O)cc(O)c21", "assay-target": "Metallo-beta-lactamase type 2 (Bacteria) (UniProt C7C422)", "quantity-unit": "%", "measured-result": 74}

# context switch: different compound, same inhibition
Data request: Entry under review: O=C1/C(=C/c2ccc(-n3ccnc3)cc2)Oc2cc(O)cc(O)c21 . Reported inhibition?
Data returned: 51

* * *

# Tested on: Bacteria
# experiment-description: Inhibition of bacterial IMP-1 assessed as substrate hydrolysis at 50 uM using imipenem as substrate by spectrophotometric analysis relative to control
property-name: inhibition

{"smiles-entry": "COc1ccc(/C=C2\\Oc3cc(OC)cc(OC)c3C2=O)c(OC)c1", "measured-result": "< 10%"}

Data request: Consider the compound shown here: Cn1cc(/C=C2\Oc3cccc(O)c3C2=O)c2cc(Br)ccc21 What is its recorded inhibition?
Data returned: 21.4%

Data request: Also, CC[C@H](C)Cn1cc(/C=C2\Oc3cc(O)cc(O)c3C2=O)c2ccccc21 please.
Data returned: 46%

Data request: Same thing, different compound: O=C1/C(=C/c2ccc(O)cc2O)Oc2c(O)cccc21
Data returned: < 10%

Data request: How about this compound: COc1cc(OC)c2c(c1)O/C(=C\c1ccc(F)cc1F)C2=O
Data returned: 32%

Data request: Then this compound: COc1cc(O)ccc1/C=C1\Oc2ccccc2C1=O
Data returned: < 10%

Data request: Item: O=C1/C(=C/c2ccccc2O)Oc2cc(O)ccc21
Data returned: < 10%

Data request: Also O=C1/C(=C/c2ccc(C3CCCCC3)cc2)Oc2cc(O)cc(O)c21 ?
Data returned: < 10%

Values compiled from ChEMBL document CHEMBL5356995.
